All figures here come from patent US20240368267A1.

Target: T1, human IL-6 (human, UniProt P05231 30-212)
T1 construct: also called interleukin-6
T1 sequence (P05231 30-212 limits assumed): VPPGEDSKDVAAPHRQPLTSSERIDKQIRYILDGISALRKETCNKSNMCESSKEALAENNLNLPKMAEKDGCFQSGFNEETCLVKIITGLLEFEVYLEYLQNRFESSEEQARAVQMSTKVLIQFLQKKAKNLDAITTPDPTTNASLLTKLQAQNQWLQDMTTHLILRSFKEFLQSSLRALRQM
Test: SPR (Biacore T200), antibody from cell supernatant captured on Protein A, IL-6 flowed over, 37 C
The following binders are shown together with reported pKd values.
Kindly note that pKd refers to -log10 of the concentration in mol/L and answer with the value alone.

Illustrative cases are given below, each with its answer.
I would be grateful if you could share the reported pKd for anti-IL-6 antibody, heavy chain T65Y, G66D / light chain WT (antibody, human IgG1, V domains shown, Derived as m2; Engineered human IgG1) VH: EVQLVESGGGLVQPGGSLRLSCAASGFTFSPFAMSWVRQAPGKGLEWVAKISPGGSWTYYSDTVYDRFTFSLDTSKSTAYLQMNSLRAEDTAVYYCARQLWGYYALDIWGQGTLVTVSS VL: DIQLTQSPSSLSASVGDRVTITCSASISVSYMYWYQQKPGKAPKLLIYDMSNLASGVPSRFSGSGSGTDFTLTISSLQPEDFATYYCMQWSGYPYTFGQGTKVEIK .
9.65

I would be grateful if you could share the reported pKd for anti-IL-6 antibody, heavy chain T63E, G66D / light chain WT (antibody, human IgG1, V domains shown, Derived as m2; Engineered human IgG1) VH: EVQLVESGGGLVQPGGSLRLSCAASGFTFSPFAMSWVRQAPGKGLEWVAKISPGGSWTYYSDEVTDRFTFSLDTSKSTAYLQMNSLRAEDTAVYYCARQLWGYYALDIWGQGTLVTVSS VL: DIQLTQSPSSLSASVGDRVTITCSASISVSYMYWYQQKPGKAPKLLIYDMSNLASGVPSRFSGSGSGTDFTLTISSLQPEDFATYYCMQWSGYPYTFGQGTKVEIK .
9.75

***
I would be grateful if you could share the reported pKd for anti-IL-6 antibody, heavy chain S35K, G66D / light chain WT (antibody, human IgG1, V domains shown, Derived as m2; Engineered human IgG1) VH: EVQLVESGGGLVQPGGSLRLSCAASGFTFSPFAMKWVRQAPGKGLEWVAKISPGGSWTYYSDTVTDRFTFSLDTSKSTAYLQMNSLRAEDTAVYYCARQLWGYYALDIWGQGTLVTVSS VL: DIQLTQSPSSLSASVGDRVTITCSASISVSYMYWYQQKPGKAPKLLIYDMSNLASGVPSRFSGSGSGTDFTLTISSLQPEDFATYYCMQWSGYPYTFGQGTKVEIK .
9.25

I would be grateful if you could share the reported pKd for anti-IL-6 antibody, heavy chain I51P, G66D / light chain WT (antibody, human IgG1, V domains shown, Derived as m2; Engineered human IgG1) VH: EVQLVESGGGLVQPGGSLRLSCAASGFTFSPFAMSWVRQAPGKGLEWVAKPSPGGSWTYYSDTVTDRFTFSLDTSKSTAYLQMNSLRAEDTAVYYCARQLWGYYALDIWGQGTLVTVSS VL: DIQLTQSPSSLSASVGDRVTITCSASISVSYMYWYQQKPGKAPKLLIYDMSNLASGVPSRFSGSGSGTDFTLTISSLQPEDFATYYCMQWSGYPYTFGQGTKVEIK .
6.41

I would be grateful if you could share the reported pKd for anti-IL-6 antibody, heavy chain T65H, G66D / light chain WT (antibody, human IgG1, V domains shown, Derived as m2; Engineered human IgG1) VH: EVQLVESGGGLVQPGGSLRLSCAASGFTFSPFAMSWVRQAPGKGLEWVAKISPGGSWTYYSDTVHDRFTFSLDTSKSTAYLQMNSLRAEDTAVYYCARQLWGYYALDIWGQGTLVTVSS VL: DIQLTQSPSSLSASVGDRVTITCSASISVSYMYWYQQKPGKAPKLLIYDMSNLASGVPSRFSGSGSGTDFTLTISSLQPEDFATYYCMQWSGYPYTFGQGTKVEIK .
9.66
